Attribution: PubChem BioAssay (EPA / NIEHS)

# Read-out: Glutathione S-transferase M3 (GSTM3), GSTM3 (gene 2947)
# assayMethodText: LTEA_HepaRG_GSTM3: Life Technologies and Expression Analysis (LTEA) Assay for Glutathione S-transferase M3 (GSTM3) using HepaRG (AID 2283501)
# testConditions: mRNA level, 48 h; actives raise or lower the signal
# Protocol: LTEA_HepaRG is a cell based, multiplexed-readout assay that uses HepaRG, a human liver cell line, with measurements taken at 48 hours after chemical dosing on a 96-well plate.LTEA_HepaRG_GSTM3 is one of 102 assay component(s) measured in the LTEA HepaRG cell culture assay. It is a marker of Oxidative Stress.Data from the assay component LTEA_HepaRG_GSTM3 was analyzed into 1 endpoint. […]
Active and inactive are the calls of the source. Rule for the calls: active = hit-call score of the fitted dose curve at least 0.9, where 1 is the maximum; inactive = score below 0.9.
Outcomes: active, inactive

compound=Cc1ccc(-c2c(Cl)nc(C#N)n2S(=O)(=O)N(C)C)cc1 qualitativelabel=active
compound=CS/C(C)=N/OC(=O)N(C)SN(C)C(=O)O/N=C(\C)SC qualitativelabel=inactive
compound=CC(C)Oc1cc(-n2nc(C(C)(C)C)oc2=O)c(Cl)cc1Cl qualitativelabel=inactive
compound=CC1=C(C(=O)Nc2ccccc2)SCCO1 qualitativelabel=inactive
compound="CC(Oc1ccc(Cl)cc1Cl)C(=O)O (configuration not stated)" qualitativelabel=inactive
compound=O=C(Nc1ccccc1)Nc1ccnc(Cl)c1 qualitativelabel=active
compound=CCNc1nc(Cl)nc(NC(C)C)n1 qualitativelabel=inactive
compound=COc1cnc(OC)n2nc(NS(=O)(=O)c3c(OCC(F)F)cccc3C(F)(F)F)nc12 qualitativelabel=inactive
compound=Fc1ccc(Oc2ccnc3cc(Cl)cc(Cl)c23)cc1 qualitativelabel=inactive
compound="N#Cc1nn(-c2c(Cl)cc(C(F)(F)F)cc2Cl)c(N)c1S(=O)C(F)(F)F (configuration not stated)" qualitativelabel=active
compound=COc1ccc(C(c2ccc(OC)cc2)C(Cl)(Cl)Cl)cc1 qualitativelabel=inactive
compound=N#Cc1cc(Br)c(O)c(Br)c1 qualitativelabel=active

====

# systemTested: Estrogen receptor (Homo sapiens) (UniProt P03372)
# Sequence (P03372 whole entry, looked up): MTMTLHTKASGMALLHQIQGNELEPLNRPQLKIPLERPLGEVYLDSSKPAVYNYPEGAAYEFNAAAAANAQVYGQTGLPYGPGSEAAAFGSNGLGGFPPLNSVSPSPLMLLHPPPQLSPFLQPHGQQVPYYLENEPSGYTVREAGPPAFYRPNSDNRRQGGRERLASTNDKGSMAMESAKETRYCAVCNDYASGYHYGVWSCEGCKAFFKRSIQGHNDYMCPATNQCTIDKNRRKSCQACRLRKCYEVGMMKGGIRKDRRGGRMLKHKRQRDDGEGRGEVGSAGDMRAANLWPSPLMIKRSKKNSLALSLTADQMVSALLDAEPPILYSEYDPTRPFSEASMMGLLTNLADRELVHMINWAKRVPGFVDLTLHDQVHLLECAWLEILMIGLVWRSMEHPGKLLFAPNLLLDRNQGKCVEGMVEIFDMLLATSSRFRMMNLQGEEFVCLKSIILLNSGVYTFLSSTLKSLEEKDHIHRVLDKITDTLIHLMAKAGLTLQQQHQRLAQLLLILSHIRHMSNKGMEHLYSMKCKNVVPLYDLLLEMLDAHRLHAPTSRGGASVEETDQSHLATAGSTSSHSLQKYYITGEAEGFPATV
# assayMethodText: CCTE_Deisenroth_AIME_384WELL_LUC_Active: CCTE's 384-well Estrogen Receptor Transactivation Assay with AIME metabolic competence (ERTA luciferase; metabolism positive), Deisenroth Lab (AID 2284030)
Results filed as inconclusive are left out. Activity calls are given as the source filed them. Rule for the calls: active = hit-call score of the fitted dose curve at least 0.9, where 1 is the maximum; inconclusive = response in the unintended direction; inactive = score below 0.9.
Outcomes: active, inactive

compound=Oc1ccccc1-c1ccccc1 qualitativelabel=active
compound=COC(=O)N(OC)c1ccccc1COc1ccn(-c2ccc(Cl)cc2)n1 qualitativelabel=inactive
compound=CC1=C(C(=O)Nc2ccccc2)SCCO1 qualitativelabel=inactive
compound="Cc1c(F)c(F)c(COC(=O)C2C(/C=C(\\Cl)C(F)(F)F)C2(C)C)c(F)c1F (stereo not given)" qualitativelabel=inactive
compound="CCON=C(CC)C1=C(O)CC(c2c(C)cc(C)cc2C)CC1=O (stereo not given)" qualitativelabel=inactive

====

# systemTested: Cellular tumor antigen p53 (Homo sapiens)
# assayMethodText: TOX21_p53_BLA_p3_ratio: Tox21 HCT-116 p53 Agonism Beta-lactamase Assay, Ratio, Phase 3 (AID 2283596)
# Procedure: TOX21_p53_BLA_p3 is a cell-based, single-readout assay that uses HCT116, a human intestinal cell line, […] in a 1536-well plate.TOX21_p53_BLA_p3_ratio is an assay readout measuring reporter gene via receptor activity and designed using inducible reporter (beta lactamase induction) detected with GAL4 b-lactamase reporter gene. […] This assay endpoint, TOX21_p53_BLA_p3_ratio, was analyzed in the positive analysis fitting direction relative to DMSO as the negative control and baseline of activity. […]
Inconclusive results are not listed. The source made the active and inactive calls. The calls were made as follows: active = hit-call score of the fitted dose curve at least 0.9, where 1 is the maximum; inconclusive = response in the unintended direction; inactive = score below 0.9.
Outcomes: y (active), n (inactive)

compound=CON(C)C(=O)Nc1ccc(Cl)c(Cl)c1 qualitativelabel=n
compound="CCOC(=O)CC(SP(=S)(OC)OC)C(=O)OCC (configuration not stated)" qualitativelabel=n
compound=CCOc1cc(Oc2ccc(C(F)(F)F)cc2Cl)ccc1[N+](=O)[O-] qualitativelabel=n
compound=COc1ccc(C(c2ccc(OC)cc2)C(Cl)(Cl)Cl)cc1 qualitativelabel=n
compound="CCCC1COC(Cn2cncn2)(c2ccc(Cl)cc2Cl)O1 (configuration not stated)" qualitativelabel=n
compound=O=C(Nc1ccccc1)Nc1ccnc(Cl)c1 qualitativelabel=y
compound="C=CCC1=C(C)C(OC(=O)C2C(C=C(C)C)C2(C)C)CC1=O (configuration not stated)" qualitativelabel=n
compound=O=C(O)c1nc(Cl)ccc1Cl qualitativelabel=n
compound="Cc1c(F)c(F)c(COC(=O)C2C(/C=C(\\Cl)C(F)(F)F)C2(C)C)c(F)c1F (configuration not stated)" qualitativelabel=n
compound="CC1COC(Cn2cncn2)(c2ccc(Oc3ccc(Cl)cc3)cc2Cl)O1 (configuration not stated)" qualitativelabel=y
compound=Cc1cc(Cl)ccc1OCC(=O)O qualitativelabel=n
compound=CCc1nn(C)c(C(=O)NCc2ccc(C(C)(C)C)cc2)c1Cl qualitativelabel=n

====

# Read-out: HGF (gene 3082)
# assayMethodText: LTEA_HepaRG_HGF: Life Technologies and Expression Analysis (LTEA) Assay for Hepatocyte Growth Facto (HGF) using HepaRG (AID 2283505)
# testConditions: mRNA level, 48 h; actives raise or lower the signal
# Description: LTEA_HepaRG is a cell based, multiplexed-readout assay that uses HepaRG, a human liver cell line, with measurements taken at 48 hours after chemical dosing on a 96-well plate.LTEA_HepaRG_HGF is one of 102 assay component(s) measured in the LTEA HepaRG cell culture assay. It is a marker of Cell proliferation, survival, death.Data from the assay component LTEA_HepaRG_HGF was analyzed into 1 endpoint. […]
Activity calls are given as the source filed them. The calls were made as follows: active = hit-call score of the fitted dose curve at least 0.9, where 1 is the maximum; inactive = score below 0.9.
Outcomes: T = active, F = inactive

compound="COC(=O)C(C)Oc1ccc(Oc2ccc(Cl)cc2Cl)cc1 (configuration not stated)" qualitativelabel=F
compound=CNC(=S)S qualitativelabel=F
compound=COc1nc(NC(C)C)nc(NC(C)C)n1 qualitativelabel=F
compound="N#Cc1nn(-c2c(Cl)cc(C(F)(F)F)cc2Cl)c(N)c1S(=O)C(F)(F)F (configuration not stated)" qualitativelabel=T
compound=CC(C)Oc1cc(-n2nc(C(C)(C)C)oc2=O)c(Cl)cc1Cl qualitativelabel=F
compound=C=CCC1=C(C)[C@@H](OC(=O)[C@@H]2[C@@H](C=C(C)C)C2(C)C)CC1=O qualitativelabel=F
compound=COP(=S)(OC)Oc1nc(Cl)c(Cl)cc1Cl qualitativelabel=F
compound=CCc1nn(C)c(C(=O)NCc2ccc(C(C)(C)C)cc2)c1Cl qualitativelabel=T
compound=COC(=O)C=C(C)OP(=O)(OC)OC qualitativelabel=F
compound=CO/C=C(/C(=O)OC)c1ccccc1Oc1cc(Oc2ccccc2C#N)ncn1 qualitativelabel=F
compound=COc1cnc(OC)n2nc(NS(=O)(=O)c3c(OCC(F)F)cccc3C(F)(F)F)nc12 qualitativelabel=F
compound=CNC(=O)ON=CC(C)(C)SC qualitativelabel=F

====

# Test system: zebrafish Estrogen Receptor (ER2b), gene 317733
# assayMethodText: ATG_zfER2b_XSP2: Attagene TRANS-FACTORIAL Multi-Species (XSP2) HepG2 Assay for zebrafish Estrogen Receptor (ER2b) (AID 2283823);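 note: fitted upward as reporter gain over DMSO so potency reflects activation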
Records with an inconclusive call do not appear. Active and inactive are the calls of the source. The calls were made as follows: active = hit-call score of the fitted dose curve at least 0.9, where 1 is the maximum; inconclusive = response in the unintended direction; inactive = score below 0.9.
Outcomes: active, inactive

compound=CCCN(CCC)c1c([N+](=O)[O-])cc(S(N)(=O)=O)cc1[N+](=O)[O-] qualitativelabel=active
compound=CC(C)Oc1cc(-n2nc(C(C)(C)C)oc2=O)c(Cl)cc1Cl qualitativelabel=active
compound="C=CC1(C)OC(=O)N(c2cc(Cl)cc(Cl)c2)C1=O (stereo unspecified)" qualitativelabel=active
compound=CCCCOC(=O)c1ccccc1C(=O)OCCCC qualitativelabel=active
compound="CCCCC(CC)COC(=O)c1ccccc1C(=O)OCC(CC)CCCC (stereo unspecified)" qualitativelabel=active
compound=CO/C=C(/C(=O)OC)c1ccccc1Oc1cc(Oc2ccccc2C#N)ncn1 qualitativelabel=inactive
compound=CON(C)C(=O)Nc1ccc(Cl)c(Cl)c1 qualitativelabel=inactive
compound=COC(=O)N(OC)c1ccccc1COc1ccn(-c2ccc(Cl)cc2)n1 qualitativelabel=inactive
compound=COP(=S)(OC)Oc1nc(Cl)c(Cl)cc1Cl qualitativelabel=active
compound="OC(c1ccc(Cl)cc1)(c1cncnc1)c1ccccc1Cl (stereo unspecified)" qualitativelabel=active
compound=CCCCNC(=O)OCC#CI qualitativelabel=active

====

# Read-out: Cytochrome P450 2B6 (Homo sapiens) (UniProt P20813)
# assayMethodText: CLD_CYP2B6_48hr: CellzDirect (CLD) Gene Expression Assay for xenobiotic metabolism (CYP2B6) at 48 hours (AID 2283699);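 note: actives raise transcript level above DMSO so potency reflects induction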
Results filed as inconclusive are left out. Active and inactive are the calls of the source. How the source made its calls: active means hit-call score of the fitted dose curve at least 0.9, where 1 is the maximum; inconclusive means response in the unintended direction; inactive means score below 0.9.
Outcomes: YES (active), NO (inactive)

compound="C=CC1(C)OC(=O)N(c2cc(Cl)cc(Cl)c2)C1=O (centres undefined)" qualitativelabel=NO
compound=O=C(O)COc1nc(Cl)c(Cl)cc1Cl qualitativelabel=NO
compound=CCOP(=S)(OCC)SCn1c(=O)oc2cc(Cl)ccc21 qualitativelabel=YES
compound=CCOc1cc(Oc2ccc(C(F)(F)F)cc2Cl)ccc1[N+](=O)[O-] qualitativelabel=YES
compound=CC1=C(C(=O)Nc2ccccc2)SCCO1 qualitativelabel=YES
compound="CCCCC(CC)COC(=O)c1ccccc1C(=O)OCC(CC)CCCC (centres undefined)" qualitativelabel=NO
compound=CCc1nn(C)c(C(=O)NCc2ccc(C(C)(C)C)cc2)c1Cl qualitativelabel=YES
compound=CC(C)Oc1cc(-n2nc(C(C)(C)C)oc2=O)c(Cl)cc1Cl qualitativelabel=YES
compound="OC(c1ccc(Cl)cc1)(c1cncnc1)c1ccccc1Cl (centres undefined)" qualitativelabel=YES
compound=COP(=S)(OC)Oc1nc(Cl)c(Cl)cc1Cl qualitativelabel=YES
compound=COC(=O)N(OC)c1ccccc1COc1ccn(-c2ccc(Cl)cc2)n1 qualitativelabel=NO
compound=CCNc1nc(Cl)nc(NC(C)C)n1 qualitativelabel=YES
compound="C=CCC1=C(C)C(OC(=O)C2C(C=C(C)C)C2(C)C)CC1=O (centres undefined)" qualitativelabel=YES
compound=CC(C)(C)c1ccc(CSc2cnn(C(C)(C)C)c(=O)c2Cl)cc1 qualitativelabel=NO
compound=CN(C)C(=S)SSC(=S)N(C)C qualitativelabel=NO
compound="CCOC(=O)C(Cl)Cc1cc(-n2nc(C)n(C(F)F)c2=O)c(F)cc1Cl (centres undefined)" qualitativelabel=YES
compound=CCNc1nc(Cl)nc(NCC)n1 qualitativelabel=YES
compound=COc1cnc(OC)n2nc(NS(=O)(=O)c3c(OCC(F)F)cccc3C(F)(F)F)nc12 qualitativelabel=NO
compound=CCCCOC(=O)c1ccccc1C(=O)OCCCC qualitativelabel=NO
compound="N#CC(CCc1ccc(Cl)cc1)(Cn1cncn1)c1ccccc1 (centres undefined)" qualitativelabel=YES
compound="CCCC1COC(Cn2cncn2)(c2ccc(Cl)cc2Cl)O1 (centres undefined)" qualitativelabel=YES
compound="CCOC(=O)CC(SP(=S)(OC)OC)C(=O)OCC (centres undefined)" qualitativelabel=NO
compound=Fc1ccc(Oc2ccnc3cc(Cl)cc(Cl)c23)cc1 qualitativelabel=NO
compound=C=CCC1=C(C)[C@@H](OC(=O)[C@@H]2[C@@H](C=C(C)C)C2(C)C)CC1=O qualitativelabel=YES
